- assay-remarks: Apparent permeability across apical to basolateral side in MDCK cells at 10 uM incubated for 3 hrs by LC-MS/MS method
- Format: ADME, cell-based, Canis lupus familiaris
- cond: dog
measure-name: Papp A→B at 3 h, 10 µM (×10⁻⁶ cm/s)

O=S(=O)(Cc1ccccc1)Nc1c(F)cc(Oc2ncccc2-c2ccnc(N[C@H]3CCCNC3)n2)c(F)c1F: 1.4
Cc1c(Oc2ncccc2-c2ccnc(N[C@H]3CCCNC3)n2)cc(F)c(NS(=O)(=O)Cc2ccccc2)c1F: 1.1
Cc1cc(Oc2ncccc2-c2ccnc(N[C@H]3CCCNC3)n2)c(F)c(F)c1NS(=O)(=O)Cc1ccccc1: 2.8

(A) O=S(=O)(Cc1ccccc1)Nc1c(F)cc(Oc2ncccc2-c2ccnc(N[C@@H]3CNC[C@@H](F)C3)n2)c(F)c1F
(B) Cc1c(Oc2ncccc2-c2ccnc(N[C@H]3CCCNC3)n2)ccc(NS(=O)(=O)Cc2ccccc2)c1F
Which entry shows the lesser value of Papp A→B at 3 h, 10 µM here, A or B ? Returns: label corresponding to the selected item.
B

(I) O=S(=O)(Cc1ccccc1)Nc1ccc(Oc2ncccc2-c2ccnc(N[C@H]3CCCNC3)n2)c(F)c1F
(II) C[C@@]1(F)CNC[C@@H](Nc2nccc(-c3cccnc3Oc3cc(F)c(NS(=O)(=O)Cc4ccccc4)c(F)c3F)n2)C1
Which of the two items, I and II , has the greater recorded Papp A→B at 3 h, 10 µM? Returns: label corresponding to the selected item.
II

* * *

- experimental-system: Serine/threonine-protein kinase/endoribonuclease IRE1 (Homo sapiens, UniProt O75460)
- Sequence (O75460 whole entry, the tested form may be a part): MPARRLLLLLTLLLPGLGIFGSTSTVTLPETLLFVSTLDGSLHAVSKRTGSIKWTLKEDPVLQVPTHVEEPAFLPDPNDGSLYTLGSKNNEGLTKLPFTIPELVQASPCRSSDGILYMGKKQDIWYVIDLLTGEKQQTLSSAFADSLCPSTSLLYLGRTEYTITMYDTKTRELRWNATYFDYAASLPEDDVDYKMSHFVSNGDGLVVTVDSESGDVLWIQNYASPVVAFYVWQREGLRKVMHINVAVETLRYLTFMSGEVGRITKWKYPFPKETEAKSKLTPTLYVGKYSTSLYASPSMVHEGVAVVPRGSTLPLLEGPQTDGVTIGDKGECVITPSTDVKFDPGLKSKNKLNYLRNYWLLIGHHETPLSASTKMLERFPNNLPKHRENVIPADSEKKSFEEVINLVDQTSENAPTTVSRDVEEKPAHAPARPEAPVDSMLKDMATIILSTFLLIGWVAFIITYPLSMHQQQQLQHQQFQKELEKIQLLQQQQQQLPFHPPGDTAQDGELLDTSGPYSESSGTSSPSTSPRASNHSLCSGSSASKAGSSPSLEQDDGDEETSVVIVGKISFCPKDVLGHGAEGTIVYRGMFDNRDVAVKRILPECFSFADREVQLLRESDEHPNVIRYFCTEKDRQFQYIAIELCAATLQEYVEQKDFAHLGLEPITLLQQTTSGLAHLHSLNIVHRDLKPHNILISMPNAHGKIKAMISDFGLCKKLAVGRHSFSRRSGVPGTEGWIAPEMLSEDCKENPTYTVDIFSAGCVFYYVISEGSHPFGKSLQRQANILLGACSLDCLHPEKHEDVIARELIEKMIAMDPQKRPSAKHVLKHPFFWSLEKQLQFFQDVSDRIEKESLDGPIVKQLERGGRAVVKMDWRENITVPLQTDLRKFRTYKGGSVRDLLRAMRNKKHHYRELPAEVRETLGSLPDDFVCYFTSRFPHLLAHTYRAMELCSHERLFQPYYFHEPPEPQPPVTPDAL
- assay-remarks: Inhibition of IRE1alpha RNase activity (unknown origin) using XBP1 as substrate preincubated for 1 hr followed by thapsigargin stimulation for 5 hrs under FCS medium by One-Glo luciferase reagent based luminescence assay
measure-name: IC50 (nM)
Numeric only. Scale: nM

Using the record for O=S(=O)(Cc1ccccc1)Nc1c(F)cc(Oc2ncccc2-c2ccnc(N[C@@H]3CNC[C@@H](F)C3)n2)c(F)c1F , report its IC50.
4

* * *

- experimental-system: Serine/threonine-protein kinase/endoribonuclease IRE1 (Homo sapiens)
- assay-remarks: Inhibition of His-tagged IRE1alpha (G547 to L977 residues) (unknown origin) expressed in Sf9 cells preincubated with anti-His Europium labeled antibody for 1 hr prior to compound addition followed by tracer 236 addition and measured after 1 hr by TR-FRET assay
pIC50: −log10 of the molar value.
measure-name: pIC50

These solved cases illustrate the format of a correct answer.
Cc1ccc2c(NS(=O)(=O)C3CCCCC3)cccc2c1Oc1ncccc1-c1ccnc(N[C@H]2CCCNC2)n1: 8.66
Cc1ccc2c(NS(=O)(=O)CCC(F)(F)F)cccc2c1Oc1ncccc1-c1ccnc(N[C@H]2CCCNC2)n1: 8.96
Cc1c(Oc2ncccc2-c2ccnc(N[C@H]3CCCNC3)n2)ccc(NS(=O)(=O)Cc2ccccc2)c1F: 8.74
O=S(=O)(Cc1ccccc1)Nc1c(F)cc(Oc2ncccc2-c2ccnc(N[C@H]3CCCNC3)n2)c(F)c1F: 8.51

(A) O=S(=O)(Cc1ccccc1)Nc1c(F)cc(Oc2ncccc2-c2ccnc(N[C@@H]3CNC[C@H](F)C3)n2)c(F)c1F
(B) O=S(=O)(Cc1ccccc1)Nc1c(F)cc(Oc2ncccc2-c2ccnc(N[C@@H]3CNC[C@@H](CF)C3)n2)c(F)c1F
(C) CCCS(=O)(=O)Nc1cccc2c(Oc3ncccc3-c3ccnc(N[C@H]4CCCNC4)n3)c(C)ccc12
Arrange the 3 compounds from largest to smallest pIC50. Please respond with the labels ordered as the question requires.
B, A, C
(B: 9.11, A: 8.70, C: 8.33)
